Target: SARS-COV-2 RBD extracellular domain expressed with a C-terminal myc-myc-hexahistidine tag (SARS-COV-2 RBD-mmH) (SARS-CoV-2)
Assay: SPR Biacore, mAb captured on anti-hFc, RBD-mmH analyte, 37 C
Catalogue of koff values
reported_metric: koff (s⁻¹)

binder="mAb15158 (antibody, V domains shown) VH: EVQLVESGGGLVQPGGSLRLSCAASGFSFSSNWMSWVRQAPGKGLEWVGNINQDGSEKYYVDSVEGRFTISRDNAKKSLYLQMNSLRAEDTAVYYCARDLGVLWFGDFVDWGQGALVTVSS VL: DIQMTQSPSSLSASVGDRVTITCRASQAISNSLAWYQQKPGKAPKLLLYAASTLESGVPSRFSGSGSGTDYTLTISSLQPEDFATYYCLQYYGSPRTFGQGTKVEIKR" scale_unit=s⁻¹ reading=0.000207
binder="mAb15150 (antibody, V domains shown) VH: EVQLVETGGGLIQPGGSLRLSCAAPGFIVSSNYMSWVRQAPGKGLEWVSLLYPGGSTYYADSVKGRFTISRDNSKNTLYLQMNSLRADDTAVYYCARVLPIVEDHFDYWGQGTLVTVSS VL: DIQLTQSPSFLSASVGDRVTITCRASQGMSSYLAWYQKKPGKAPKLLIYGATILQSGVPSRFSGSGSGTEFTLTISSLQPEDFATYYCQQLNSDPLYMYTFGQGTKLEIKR" scale_unit=s⁻¹ reading=7.84e-05
binder="mAb15157 (antibody, V domains shown) VH: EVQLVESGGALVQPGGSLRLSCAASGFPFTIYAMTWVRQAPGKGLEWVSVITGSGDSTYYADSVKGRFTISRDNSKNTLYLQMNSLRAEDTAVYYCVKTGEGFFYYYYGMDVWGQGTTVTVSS VL: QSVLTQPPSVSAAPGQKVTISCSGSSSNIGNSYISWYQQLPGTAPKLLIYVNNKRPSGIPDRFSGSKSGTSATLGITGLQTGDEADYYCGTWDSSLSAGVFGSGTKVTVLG" scale_unit=s⁻¹ reading=0.00399
binder="mAb14234 (antibody, V domains shown) VH: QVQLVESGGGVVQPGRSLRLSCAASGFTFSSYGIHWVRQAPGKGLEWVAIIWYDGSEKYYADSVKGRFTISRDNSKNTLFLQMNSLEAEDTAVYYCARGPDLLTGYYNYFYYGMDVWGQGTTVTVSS VL: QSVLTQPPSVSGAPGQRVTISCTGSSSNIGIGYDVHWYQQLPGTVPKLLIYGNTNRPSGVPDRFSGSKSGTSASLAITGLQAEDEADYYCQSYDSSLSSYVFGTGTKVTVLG" scale_unit=s⁻¹ reading=0.0119
binder="mAb13458 (antibody, V domains shown) VH: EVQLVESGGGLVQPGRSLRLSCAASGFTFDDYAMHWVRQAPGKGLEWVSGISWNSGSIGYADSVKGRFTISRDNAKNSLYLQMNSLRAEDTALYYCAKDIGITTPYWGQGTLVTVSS VL: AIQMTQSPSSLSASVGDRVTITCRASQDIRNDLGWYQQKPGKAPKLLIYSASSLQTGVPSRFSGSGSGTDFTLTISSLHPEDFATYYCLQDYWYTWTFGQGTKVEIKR" scale_unit=s⁻¹ reading=0.00139
binder="mAb14232 (antibody, V domains shown) VH: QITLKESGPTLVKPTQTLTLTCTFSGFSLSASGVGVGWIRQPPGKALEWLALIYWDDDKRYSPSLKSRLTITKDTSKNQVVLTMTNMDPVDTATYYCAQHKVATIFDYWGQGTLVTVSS VL: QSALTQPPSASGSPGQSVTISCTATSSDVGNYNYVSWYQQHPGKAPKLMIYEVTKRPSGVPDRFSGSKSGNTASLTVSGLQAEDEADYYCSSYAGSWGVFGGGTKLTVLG" scale_unit=s⁻¹ reading=0.0372
binder="mAb15170 (antibody, V domains shown) VH: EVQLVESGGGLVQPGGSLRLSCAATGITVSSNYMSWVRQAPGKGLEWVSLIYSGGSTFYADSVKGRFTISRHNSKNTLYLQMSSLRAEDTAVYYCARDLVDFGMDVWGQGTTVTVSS VL: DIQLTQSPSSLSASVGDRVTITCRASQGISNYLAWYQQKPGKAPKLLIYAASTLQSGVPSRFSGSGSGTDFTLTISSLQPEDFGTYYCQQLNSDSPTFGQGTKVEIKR" scale_unit=s⁻¹ reading=8.36e-05
binder="mAb14281 (antibody, V domains shown) VH: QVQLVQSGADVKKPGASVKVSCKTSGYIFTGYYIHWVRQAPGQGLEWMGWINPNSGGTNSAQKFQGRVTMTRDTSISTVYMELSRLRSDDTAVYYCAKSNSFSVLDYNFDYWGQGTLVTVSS VL: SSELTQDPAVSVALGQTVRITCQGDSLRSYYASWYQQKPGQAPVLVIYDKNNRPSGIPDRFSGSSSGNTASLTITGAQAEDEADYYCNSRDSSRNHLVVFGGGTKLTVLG" scale_unit=s⁻¹ reading=0.00582
binder="mAb15151 (antibody, V domains shown) VH: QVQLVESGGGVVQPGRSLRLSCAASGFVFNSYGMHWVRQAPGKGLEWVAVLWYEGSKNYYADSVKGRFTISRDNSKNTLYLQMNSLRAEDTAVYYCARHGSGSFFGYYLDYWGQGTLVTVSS VL: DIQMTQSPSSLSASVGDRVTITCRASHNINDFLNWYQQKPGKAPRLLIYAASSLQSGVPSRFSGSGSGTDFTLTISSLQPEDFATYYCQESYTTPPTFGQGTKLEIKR" scale_unit=s⁻¹ reading=0.00442
binder="mAb13459 (antibody, V domains shown) VH: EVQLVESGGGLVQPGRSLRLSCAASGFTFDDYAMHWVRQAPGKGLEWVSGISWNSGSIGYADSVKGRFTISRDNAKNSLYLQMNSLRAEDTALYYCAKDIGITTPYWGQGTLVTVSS VL: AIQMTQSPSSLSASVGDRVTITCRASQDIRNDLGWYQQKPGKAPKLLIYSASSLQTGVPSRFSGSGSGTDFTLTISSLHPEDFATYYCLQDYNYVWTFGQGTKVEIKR" scale_unit=s⁻¹ reading=0.00204
